FYI, the data here is from BindingDB's records for patent US20240190872.

system under test: Enoyl-[acyl-carrier-protein] reductase [NADH] (UniProt A0A6F8TJQ1)
Sequence (A0A6F8TJQ1 whole entry): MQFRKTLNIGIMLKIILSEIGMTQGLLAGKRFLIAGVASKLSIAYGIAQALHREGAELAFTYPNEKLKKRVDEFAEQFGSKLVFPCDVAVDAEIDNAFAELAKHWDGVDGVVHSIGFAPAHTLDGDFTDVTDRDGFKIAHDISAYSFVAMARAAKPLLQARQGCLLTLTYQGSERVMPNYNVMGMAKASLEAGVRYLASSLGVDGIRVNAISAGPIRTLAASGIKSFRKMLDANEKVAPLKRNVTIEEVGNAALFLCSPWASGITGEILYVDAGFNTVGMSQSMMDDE
assay protocol: standard FabI enzyme assay
quantity: Ki
Output should be the measured figure followed by the unit it is expressed in.

Short answer please: Ki, Enoyl-[acyl-carrier-protein] reductase [NADH] (UniProt A0A6F8TJQ1), entry Cc1c(CN(C)C(=O)/C=C/c2cnc3c(c2)C[C@@H](N)C(=O)N3)oc2ccccc12
114 nM
